- System: NCI/ADR-RES
- assay.overview: NCI tumour cell line growth inhibition, 48 h
Active and inactive are the calls of the source. Rule as the data show it: active = GI50 up to about 1.1 µM and inactive = higher.
Listing: GI50 of selected molecules
assay.endpoint: GI50

| molecule | assay.endpoint | observed |
| --- | --- | --- |
| COC(=O)CCc1ccc2c(c1)[C@H](C(=O)OC)[C@@H](c1ccc(O)cc1)O2 | GI50 | > 100 µM (inactive) |
| COc1ccc2c(c1)CCc1c-2n(CCN(C)C)c2ccc(OC)cc12 | GI50 | 18.5 µM (inactive) |
| COc1cc(N(C)C)c(OC)cc1/C=C\c1ccnc2ccccc12 | GI50 | 2.56 µM (inactive) |
| CCN1CCN(c2nc3ccccc3nc2C(=O)c2ccc(OC)c(OC)c2)CC1 | GI50 | 1.6 µM (inactive) |
| O=C(Sc1c(-c2ccccc2)c(=O)n(-c2ccccc2)c(=S)n1-c1ccccc1)c1ccco1 | GI50 | > 100 µM (inactive) |
| Cc1ccc(O)c(C2=NNC(c3cccc(Cl)c3)C2)c1 (stereo not given) | GI50 | 34.5 µM (inactive) |
| c1csc(-c2cc(-c3ccsc3)c(-c3ccsc3)s2)c1 | GI50 | > 100 µM (inactive) |
| O=c1[nH]nc(Cc2ccccc2)n1/N=C/c1ccc([N+](=O)[O-])cc1 | GI50 | > 100 µM (inactive) |
| Cc1ccc(S(=O)(=O)C2=c3ncccc3=C3C(=O)c4ccccc4C(=O)C32)cc1 (stereo not given) | GI50 | 49.3 µM (inactive) |
| O=C(O)CNC(=O)c1ccc2cc(C(=O)N3CC(CCl)c4ccc([N+](=O)[O-])cc43)[nH]c2c1 (stereo not given) | GI50 | > 100 µM (inactive) |

====

- Test system: NCI-H23
- assay.overview: NCI tumour cell line growth inhibition, 48 h
Active and inactive are the calls of the source. Cut-off read from the data, not from the text of the source: active = GI50 up to about 1.1 µM and inactive = higher.

| molecule | GI50 |
| --- | --- |
| COC(=O)/C=C/c1cnc2c(c1)oc(=O)n2CCc1ccccn1 | > 100 µM (inactive) |
| Oc1cc(O)c2c(-c3c(O)c(-c4ccc(O)c(O)c4)[o+]c4cc(O)cc(O)c34)c(O)c(-c3ccc(O)c(O)c3)[o+]c2c1 | 40.3 µM (inactive) |
| CCCCCC(=O)OCC1(CO)C/C(=C\CC(C(C)C)C(C)C)C(=O)O1 (stereo not given) | > 100 µM (inactive) |
| COc1ccc2oc3c4c2c1CCC4CCC3=O (stereo not given) | > 100 µM (inactive) |
| O=C(O)CSc1ccc2nc3ccccc3c(O)c2c1 | > 100 µM (inactive) |
| COc1ccccc1C(O)(c1ccccc1)C(O)(c1ccccc1)c1ccccc1OC (stereo not given) | > 100 µM (inactive) |
| O=C1/C(=C/c2ccc(Cl)cc2)N=C(c2ccccc2)N1/N=C/c1ccccc1O | > 100 µM (inactive) |
| COc1ccccc1/C=C1/Sc2scc(CC(=O)Nc3ccccc3)[n+]2C1=O | 28.6 µM (inactive) |
| COc1ccc(C2=NN(C(=O)c3cccnc3)C(O)(c3cc(F)c(Cl)cc3Cl)C2)cc1OC (stereo not given) | 20.4 µM (inactive) |
| COc1ccc(C2C3CCCC(C3=O)C(c3ccc(OC)cc3)N2N=O)cc1 (stereo not given) | 19.5 µM (inactive) |

====

- Tested on: OVCAR-8
- assay.overview: NCI tumour cell line growth inhibition, 48 h
The source made the active and inactive calls. No stated cut-off is given here; in the data, active = GI50 up to about 1.1 µM and inactive = higher.
Listing: GI50 of selected compounds

| compound | GI50 |
| --- | --- |
| CN(Cc1cnc2nc(N)nc(N)c2n1)c1ccc(C(=O)NC(CCC(=O)O)C(=O)O)cc1 (stereo not given) | < 0.0448 µM (active) |
| O=C1CSC(c2c[nH]c3ccccc23)N1c1ccc(Cl)cc1 (stereo not given) | > 100 µM (inactive) |
| COC(=O)CCC(NC(=S)N/N=C(\C)c1cnc2ccccc2n1)C(=O)OC (stereo not given) | 46.9 µM (inactive) |
| O=[N+]([O-])c1ccccc1S(=O)(=O)c1ccccc1[N+](=O)[O-] | > 56.2 µM (inactive) |
| CCOC(=O)CCC(NC(=O)C(N)Cc1ccc(N(CCCl)CCCl)cc1)C(=O)OCC (stereo not given) | 0.867 µM (active) |

====

- Test system: UACC-257
- assay.overview: NCI tumour cell line growth inhibition, 48 h
The source made the active and inactive calls. Cut-off read from the data, not from the text of the source: active = GI50 up to about 1.1 µM and inactive = higher.
Listing: GI50 of selected molecules
assay.endpoint: GI50

| molecule | observed |
| --- | --- |
| CCOC(=O)C(CC(C)C)NC(=O)C(Cc1ccc(N(CCCl)CCCl)cc1)NC(C)=O (centres undefined) | 3.74 µM (inactive) |
| COC(=O)CCC(NC(=S)N/N=C(\C)c1cnc2ccccc2n1)C(=O)OC (centres undefined) | 49.5 µM (inactive) |
| Cc1c(C(=O)/C=C/c2ccco2)[n+]([O-])c2ccccc2[n+]1[O-] | > 100 µM (inactive) |
| CC1(c2ccc(F)cc2)C2C(=O)NC(=O)C1C(=O)NC2=O (centres undefined) | > 100 µM (inactive) |
| O=C(N/N=C1\C(=O)N(c2nccs2)C(=O)C(=O)C1c1nc2ccccc2s1)c1ccccc1O (centres undefined) | 35.7 µM (inactive) |
| COc1ccc2oc3c4c2c1CCC4CCC3=O (centres undefined) | 16.8 µM (inactive) |
| CCCCc1ccc(Nc2nc(Cl)c3[nH]cnc3n2)cc1 | 16.2 µM (inactive) |
| O=C(O)Cn1ccnc1[N+](=O)[O-] | > 100 µM (inactive) |
| CN(C)CCNC(=O)c1cccc2c1nc(-c1ccncc1)c1ccccc12 | 3.01 µM (inactive) |
| O=C(CCC(=O)N/N=C/c1ccccc1O)N/N=C/c1ccccc1O | > 100 µM (inactive) |
| CCCCON1C[C@@H](O)C(O)[C@@H](O)C1 (some centres undefined) | > 100 µM (inactive) |
| C#CCCCC(=C)C[C@H](OCc1ccccc1)[C@H]1OC(=O)[C@@H]1C | > 100 µM (inactive) |
| COc1ccccc1C(O)(c1ccccc1)C(O)(c1ccccc1)c1ccccc1OC (centres undefined) | > 100 µM (inactive) |
| Cc1ccc([S+]([O-])C[C@@]2(C(F)F)NC(=O)NC2=O)cc1 (some centres undefined) | > 100 µM (inactive) |
| NC(=S)N/N=C(\CCC(=O)Nc1ccccc1[N+](=O)[O-])CC(=O)c1ccco1 | > 100 µM (inactive) |
| COc1ccc(NC(=O)C(=O)C(CC2C(=O)NC(=S)NC2=O)C(=O)c2ccc3ccccc3c2)c([N+](=O)[O-])c1 (centres undefined) | > 100 µM (inactive) |
| CCCCCCNC(=S)N/N=C(\C)c1ccccn1 | 0.01 µM (active) |
| CN/N=C(/Cc1occc(=O)c1O)C(=O)Nc1ccccc1C | > 100 µM (inactive) |
| CC1(C)N=c2c(ncn2CCO)=C(C(N)=O)N1 | > 100 µM (inactive) |
| NC(Cc1ccc(O)c(O)c1)P(=O)(O)O (centres undefined) | > 100 µM (inactive) |
| CN(NC(=O)c1ccco1)C1=NCCN1 | > 100 µM (inactive) |
| CCCCC#CS(=O)(=O)C(F)(F)F | 12.9 µM (inactive) |
| C=O.NNCCc1n[nH]c(=O)n1N | > 100 µM (inactive) |
| Cc1cn2c(=O)c3ccccc3nc2s1 | > 100 µM (inactive) |

====

- Tested on: HOP-62
- assay.overview: NCI tumour cell line growth inhibition, 48 h
Activity calls are given as the source filed them. Cut-off read from the data, not from the text of the source: active = GI50 up to about 1.1 µM and inactive = higher.

| compound | measured.on | GI50 |
| --- | --- | --- |
| Cc1ccc(S(=O)(=O)C2=c3ncccc3=C3C(=O)c4ccccc4C(=O)C32)cc1 (configuration not stated) | HOP-62 | 4.71 µM (inactive) |
| O=C1/C(=N/c2ccc(Nc3ccccc3)cc2)Oc2ccccc21 | HOP-62 | 5.57 µM (inactive) |
| CC(=O)OCCOCCN1CCN(C2=C(Cl)C(=O)c3c(O)ccc(O)c3C2=O)CC1 | HOP-62 | 3.04 µM (inactive) |
| CC1=NN(c2ccccc2)C(=O)C1=C1SCCS1 | HOP-62 | > 100 µM (inactive) |
| CCCCCCSC[C@H](OC(C)=O)[C@@H](OC(C)=O)[C@@H](OC(C)=O)[C@@H](COC(C)=O)OC(C)=O | HOP-62 | > 100 µM (inactive) |
| O=[N+]([O-])c1ccccc1S(=O)(=O)c1ccccc1[N+](=O)[O-] | HOP-62 | 34.9 µM (inactive) |
| CC(=O)OC12/C(=N/O)CCCCCC1c1ccccc12 (configuration not stated) | HOP-62 | > 100 µM (inactive) |
| Cc1ccc(N2C(=O)C(=CN)C(=O)N(c3ccc(C)cc3)C2=O)cc1 | HOP-62 | 44.2 µM (inactive) |
| O=C1Nc2ccccc2SC1=C(C(=O)c1ccccc1)C(=O)c1ccccc1 | HOP-62 | 46.7 µM (inactive) |
| COc1ccccc1C(O)(c1ccccc1)C(O)(c1ccccc1)c1ccccc1OC (configuration not stated) | HOP-62 | > 100 µM (inactive) |
| CN1CCC[N+](C)=C1c1ccccc1 | HOP-62 | > 100 µM (inactive) |
| C/C=C/OC1C(C2COC(C)(C)O2)OC2OC(C)(C)OC21 (configuration not stated) | HOP-62 | > 100 µM (inactive) |
| Cc1cn(C2CC(N)C(CN)O2)c(=O)[nH]c1=O (configuration not stated) | HOP-62 | > 100 µM (inactive) |
| COc1cccc2c1C(=O)c1c(O)c3c(c(O)c1C2=O)C[C@@](O)(C(C)=O)CC3S(=O)(=O)O (some centres not stated) | HOP-62 | > 100 µM (inactive) |
| NC(Cc1cccc([N+](=O)[O-])c1)C(=O)O (configuration not stated) | HOP-62 | > 100 µM (inactive) |
| Oc1c(Br)cc(CN(Cc2cc(Br)c(O)c(Br)c2)C2CCCCC2)cc1Br | HOP-62 | > 100 µM (inactive) |
| CCOP(=O)(OCC)C(C(=O)OC)C(=O)C(=O)Nc1c(C)cc(Br)cc1C (configuration not stated) | HOP-62 | > 100 µM (inactive) |
